measuredOn: HLA-A*29:02
method: IEDB peptide-MHC binding, purified MHC/competitive/radioactivity; filed as Kd, often an IC50 or EC50 that approximates it; bounds were set here for any values at or beyond the usual limits of such assays
testParameters: source organism: Mammarenavirus guanaritoense
quantity: Kd (µM)

>  <biopolymerSequence>
GYRFFNKTL

>  <valueUnits>
µM

>  <reading>
3.59

$$$$
>  <biopolymerSequence>
SFKVGHHTNF

>  <valueUnits>
µM

>  <reading>
0.814

$$$$
>  <biopolymerSequence>
ELLSYCVSLF

>  <valueUnits>
µM

>  <reading>
5.8

$$$$

---

measuredOn: HLA-B*15:17
method: IEDB peptide-MHC binding, purified MHC/direct/fluorescence; filed as Kd, often an IC50 or EC50 that approximates it; bounds were set here for any values at or beyond the usual limits of such assays
testParameters: source organism: Influenza A virus (A/swine/Chiai/77-10/2001(H3N1))
pKd: −log10 of the molar value.

>  <biopolymerSequence>
VSFDQNLDY

>  <pKd>
8.80

$$$$

Taken from the Immune Epitope Database (IEDB).
